Data credit: ChEMBL document CHEMBL1137844

The compounds listed here are annotated with their Ki.
Target: Retinoic acid receptor alpha (Homo sapiens, UniProt P10276)
Sequence (P10276 whole entry): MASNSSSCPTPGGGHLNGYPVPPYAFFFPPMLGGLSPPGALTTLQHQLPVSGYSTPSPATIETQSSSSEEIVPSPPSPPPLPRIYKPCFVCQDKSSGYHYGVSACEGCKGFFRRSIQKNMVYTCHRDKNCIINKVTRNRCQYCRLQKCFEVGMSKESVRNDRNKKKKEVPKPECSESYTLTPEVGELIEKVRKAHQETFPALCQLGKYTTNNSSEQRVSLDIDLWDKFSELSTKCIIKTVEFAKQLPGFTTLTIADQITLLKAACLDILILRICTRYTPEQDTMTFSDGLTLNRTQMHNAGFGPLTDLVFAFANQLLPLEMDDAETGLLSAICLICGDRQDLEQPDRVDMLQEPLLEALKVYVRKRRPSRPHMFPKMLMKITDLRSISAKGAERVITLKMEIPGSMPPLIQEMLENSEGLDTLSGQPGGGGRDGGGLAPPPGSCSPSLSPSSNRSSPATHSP

In the examples that follow, each entry is paired with its recorded Ki.
# TEST_SMILES, ENDPOINT_LABEL, VALUE_REPORTED
measured = [
    ("C/C(=C\\C(=O)O)c1cc2c(-c3cc(C(C)(C)C)cc(C(C)(C)C)c3OCCC(F)F)cccc2s1", "Ki", "> 10 µM"),
    ("CCCCCCCOc1c(-c2cccc3sc(/C(C)=C/C(=O)O)cc23)cc(C(C)(C)C)cc1C(C)(C)C", "Ki", "> 10 µM"),
    ("C/C(=C\\C(=O)O)c1cc2c(-c3cc(C(C)(C)C)cc(C(C)(C)C)c3OCC(F)F)cccc2s1", "Ki", "8.36 µM"),
]

Ask | State the recorded Ki for this entry: C/C(=C(/F)C(=O)O)c1cc2cccc(-c3cc(C(C)C)cc(C(C)C)c3OCC(F)F)c2o1
Reply | > 10 µM

Ask | Same again, this time with C/C(=C\C(=O)O)c1cc2c(-c3cc(C(C)(C)C)cc(C(C)(C)C)c3C)cccc2s1
Reply | 1.79 µM

Ask | Another compound: CCOc1c(-c2cccc3cc(/C(C)=C/C(=O)O)sc23)cc(C(C)C)cc1C(C)C
Reply | 6.02 µM

Ask | # repeat for C/C(=C\C(=O)O)c1cc2cccc(-c3cc(C(C)C)cc(C(C)C)c3OCC(F)F)c2o1
Reply | > 10 µM

Ask | CCOc1c(-c2cccc3cc(/C(C)=C/C(=O)O)oc23)cc(C(C)C)cc1C(C)C ?
Reply | > 10 µM

Ask | Then this compound: C/C(=C/C=C/C(C)=C/C(=O)O)c1cc(C(C)(C)C)cc(C(C)(C)C)c1OCC(F)F
Reply | > 1 µM

---

// reported Ki for each item listed
Protein target, amino acids: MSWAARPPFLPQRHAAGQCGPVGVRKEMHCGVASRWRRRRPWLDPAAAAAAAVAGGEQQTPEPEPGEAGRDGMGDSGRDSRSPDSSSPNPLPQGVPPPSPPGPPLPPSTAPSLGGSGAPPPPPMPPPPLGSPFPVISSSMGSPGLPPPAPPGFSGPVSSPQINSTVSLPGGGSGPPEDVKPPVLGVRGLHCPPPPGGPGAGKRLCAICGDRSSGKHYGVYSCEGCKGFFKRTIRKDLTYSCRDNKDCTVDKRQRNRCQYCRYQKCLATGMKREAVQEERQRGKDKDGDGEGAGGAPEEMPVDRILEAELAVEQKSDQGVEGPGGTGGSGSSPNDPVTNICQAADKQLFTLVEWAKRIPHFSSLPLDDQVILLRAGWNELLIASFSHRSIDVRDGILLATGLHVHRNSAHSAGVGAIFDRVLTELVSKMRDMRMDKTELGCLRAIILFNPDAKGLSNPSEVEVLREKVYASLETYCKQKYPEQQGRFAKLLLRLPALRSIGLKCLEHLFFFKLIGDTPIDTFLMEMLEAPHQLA

# TEST_SMILES, Ki
rows = [
    ("Cc1cc2c(cc1C1(c3ccc(C(=O)O)cn3)CC1)C(C)(C)CCC2(C)C", "7.5 nM"),
    ("C/C(=C/C=C/C(C)=C/C(=O)O)c1cc(C(C)(C)C)cc(C(C)(C)C)c1OCC(F)F", "18 nM"),
    ("C/C(=C\\C(=O)O)c1cc2c(-c3cc(C(C)(C)C)cc(C(C)(C)C)c3OCC(F)F)cccc2s1", "55 nM"),
]

Ask | Data request, read-out Ki, for C/C(=C\C(=O)O)c1cc2cccc(-c3cc(C(C)C)cc(C(C)C)c3OCC(F)(F)F)c2o1
Reply | 142 nM

Ask | Please do the same for C/C(=C(/F)C(=O)O)c1cc2cccc(-c3cc(C(C)C)cc(C(C)C)c3OCC(F)F)c2o1 as well.
Reply | 4 nM

---

Biological target: Retinoic acid receptor RXR-alpha (Homo sapiens)
Sequence (P19793 whole entry): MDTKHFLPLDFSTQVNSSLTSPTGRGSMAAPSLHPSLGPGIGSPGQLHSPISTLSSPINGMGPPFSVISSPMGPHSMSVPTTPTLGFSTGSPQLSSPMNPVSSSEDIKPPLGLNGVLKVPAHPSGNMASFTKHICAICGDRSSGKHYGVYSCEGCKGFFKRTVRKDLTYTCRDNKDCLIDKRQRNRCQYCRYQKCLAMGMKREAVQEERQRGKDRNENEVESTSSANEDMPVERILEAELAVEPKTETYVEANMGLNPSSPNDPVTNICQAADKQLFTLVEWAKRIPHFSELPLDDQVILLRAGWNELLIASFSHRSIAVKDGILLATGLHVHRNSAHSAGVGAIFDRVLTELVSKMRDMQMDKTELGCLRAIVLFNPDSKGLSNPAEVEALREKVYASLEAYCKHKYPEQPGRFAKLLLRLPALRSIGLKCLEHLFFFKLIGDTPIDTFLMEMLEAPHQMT
Test: Binding affinity against Retinoic acid receptor RXR-alpha by [3H]9-cis-RA displacement.
Each entry below carries its reported pKi.
Scale explanation: pKi corresponds to minus log10 of a concentration expressed in moles per litre.

// known answers, use as guide
# TEST_SMILES, pKi
data = [
    ("C/C(=C(/F)C(=O)O)c1cc2cccc(-c3cc(C(C)C)cc(C(C)C)c3OCC(F)F)c2o1", 7.00),
    ("C/C(=C\\C(=O)O)c1cc2c(-c3cc(C(C)(C)C)cc(C(C)(C)C)c3C)cccc2s1", 8.15),
    ("CCCCOc1c(-c2cccc3cc(/C(C)=C(\\F)C(=O)O)oc23)cc(C(C)C)cc1C(C)C", 7.80),
]

Ask | What value of measured pKi is listed for CCOc1c(-c2cccc3sc(/C(C)=C/C(=O)O)cc23)cc(C(C)C)cc1C(C)C ?
Reply | 8.22

Ask | C/C(=C\C(=O)O)c1cc2cccc(-c3cc(C(C)C)cc(C(C)C)c3OCCCF)c2o1 , same question.
Reply | 7.33

Ask | // same read-out, input: C/C(=C\C(=O)O)c1cc2c(-c3cc(C(C)(C)C)cc(C(C)(C)C)c3OCCC(F)F)cccc2s1
Reply | 8.15

---

# Lookup of reported pKi keyed by entry
Biological target: Retinoic acid receptor RXR-gamma (Homo sapiens, UniProt P48443)
Sequence (P48443 whole entry): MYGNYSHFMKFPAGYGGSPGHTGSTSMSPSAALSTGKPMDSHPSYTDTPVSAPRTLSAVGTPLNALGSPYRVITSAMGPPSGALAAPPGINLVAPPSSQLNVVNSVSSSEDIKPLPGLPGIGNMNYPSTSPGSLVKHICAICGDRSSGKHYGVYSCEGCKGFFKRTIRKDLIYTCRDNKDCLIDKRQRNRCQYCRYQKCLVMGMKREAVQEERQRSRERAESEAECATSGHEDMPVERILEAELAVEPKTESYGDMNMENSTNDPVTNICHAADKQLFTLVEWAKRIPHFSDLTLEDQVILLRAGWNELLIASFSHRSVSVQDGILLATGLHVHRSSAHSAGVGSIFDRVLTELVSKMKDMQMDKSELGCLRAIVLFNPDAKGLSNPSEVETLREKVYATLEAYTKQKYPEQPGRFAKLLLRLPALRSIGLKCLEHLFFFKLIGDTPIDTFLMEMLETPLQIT
In simple prose, pKi is minus the logarithm base ten of a concentration in moles per litre.

# TEST_SMILES, pKi
rows = [
    ("C/C(=C/C=C/C(C)=C/C(=O)O)c1cc(C(C)(C)C)cc(C(C)(C)C)c1OCC(F)F", 7.41),
    ("CCOc1c(-c2cccc3sc(/C(C)=C/C(=O)O)cc23)cc(C(C)C)cc1C(C)C", 7.92),
    ("C/C(=C\\C(=O)O)c1cc2c(-c3cc(C(C)(C)C)cc(C(C)(C)C)c3OCCCF)cccc2s1", 7.68),
]

Query compound follows.
Ask | Quick one: pKi for C/C(=C\C(=O)O)c1cc2c(-c3cc(C(C)(C)C)cc(C(C)(C)C)c3OCCC(F)F)cccc2s1 ?
Reply | 7.43
